For each entry below, report its GI50 value.
System: LOX IMVI
Procedure summary: Cytotoxicity against human LOXIMVI cells
Assay type: functional
Value expressed in µM; do not type the unit.

### Prompt Please report the recorded GI50 for CC(=O)O[C@H]1C[C@H]2OC[C@@]2(OC(C)=O)[C@H]2[C@H](OC(C)=O)[C@]3(C(C)(C)O)C[C@H](OC(=O)[C@H](O)[C@@H](NC(=O)OC(C)(C)C)c4ccccc4)C(C)=C3[C@@H](OC(=O)c3ccccc3)[C@H](OC(C)=O)[C@]12C .
### Response 21.4

### Prompt Please report the recorded GI50 for C=C1C(=O)C=C[C@@]2(C)[C@@H](OC(C)=O)[C@H](OC(=O)c3ccccc3)C3=C(C)[C@@H](OC(=O)[C@H](O)[C@@H](NC(=O)c4ccccc4)c4ccccc4)C[C@@]3(C(C)(C)O)[C@@H](OC(C)=O)[C@H]12 .
### Response 1.57
